TARGET_UNDER_TEST: human PILRA G78 on cells (human, UniProt Q9UKJ1 20-303)
Sequence (Q9UKJ1 20-303 R78G limits assumed): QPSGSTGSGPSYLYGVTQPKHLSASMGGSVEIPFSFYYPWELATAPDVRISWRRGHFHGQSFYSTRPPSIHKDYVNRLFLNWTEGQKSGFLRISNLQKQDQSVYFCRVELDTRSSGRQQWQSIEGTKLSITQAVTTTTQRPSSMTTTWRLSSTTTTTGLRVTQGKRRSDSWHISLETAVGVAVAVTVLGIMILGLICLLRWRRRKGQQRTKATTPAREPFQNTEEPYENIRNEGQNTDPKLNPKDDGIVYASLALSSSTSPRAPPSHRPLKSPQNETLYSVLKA
ASSAY_TEXT: cell-based or functional assay
RECORDED_METRIC: pSTAT3 S727 induction, EC50 (nM)

- Anti-PILRA antibody clone 35 (antibody, V domains shown, Humanized; also called Ab.35) VH: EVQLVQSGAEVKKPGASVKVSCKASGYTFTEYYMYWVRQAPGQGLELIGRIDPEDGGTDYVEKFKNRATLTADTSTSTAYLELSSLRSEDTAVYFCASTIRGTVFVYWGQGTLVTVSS VL: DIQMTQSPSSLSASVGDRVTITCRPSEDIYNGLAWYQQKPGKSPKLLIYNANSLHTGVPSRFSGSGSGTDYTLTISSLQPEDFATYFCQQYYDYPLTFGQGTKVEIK: 23
- Anti-PILRA antibody clone 15 (antibody, V domains shown, Humanized; also called Ab.15) VH: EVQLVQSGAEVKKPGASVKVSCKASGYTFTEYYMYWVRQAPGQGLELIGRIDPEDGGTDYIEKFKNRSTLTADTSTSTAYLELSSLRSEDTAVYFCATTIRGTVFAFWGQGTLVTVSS VL: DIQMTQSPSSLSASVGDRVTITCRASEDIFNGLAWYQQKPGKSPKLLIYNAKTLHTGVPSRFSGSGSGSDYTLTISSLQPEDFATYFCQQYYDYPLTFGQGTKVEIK: 17.5
- Anti-PILRA antibody clone 6 (antibody, V domains shown, the printed lines of the VL are out of order there) VH: EVQLQQSGPELQRPGASVKLSCKASGYTFTEYYMYWVKQRPKQGLELIGRIDPEDGGTDYIEKFKNKATLTADTSSNTAYMQLSSLTSEDTATYFCATTIRGTVFAFWGQGTLVTVSS VL: DIQMTQSPASLSASLGETVTIECRASEDIFNGLAWYQQKPGKSPHLLIYNAKTLHTGVPSRFSGSGSGSQYSLKINSLQSEDVASYFCQQYYDYPLTFGSGTKLEIK: 16

The origin of these recorded values is patent US20260109763A1.
